Values from patent US20260083865A1

Biological target: Fc-fusion protein of human PSMA (hPSMA-Fc) (Homo sapiens)
Construct: purchased Acro Biosystems PSA-H5264
Sequence (Q04609 44-750 limits assumed): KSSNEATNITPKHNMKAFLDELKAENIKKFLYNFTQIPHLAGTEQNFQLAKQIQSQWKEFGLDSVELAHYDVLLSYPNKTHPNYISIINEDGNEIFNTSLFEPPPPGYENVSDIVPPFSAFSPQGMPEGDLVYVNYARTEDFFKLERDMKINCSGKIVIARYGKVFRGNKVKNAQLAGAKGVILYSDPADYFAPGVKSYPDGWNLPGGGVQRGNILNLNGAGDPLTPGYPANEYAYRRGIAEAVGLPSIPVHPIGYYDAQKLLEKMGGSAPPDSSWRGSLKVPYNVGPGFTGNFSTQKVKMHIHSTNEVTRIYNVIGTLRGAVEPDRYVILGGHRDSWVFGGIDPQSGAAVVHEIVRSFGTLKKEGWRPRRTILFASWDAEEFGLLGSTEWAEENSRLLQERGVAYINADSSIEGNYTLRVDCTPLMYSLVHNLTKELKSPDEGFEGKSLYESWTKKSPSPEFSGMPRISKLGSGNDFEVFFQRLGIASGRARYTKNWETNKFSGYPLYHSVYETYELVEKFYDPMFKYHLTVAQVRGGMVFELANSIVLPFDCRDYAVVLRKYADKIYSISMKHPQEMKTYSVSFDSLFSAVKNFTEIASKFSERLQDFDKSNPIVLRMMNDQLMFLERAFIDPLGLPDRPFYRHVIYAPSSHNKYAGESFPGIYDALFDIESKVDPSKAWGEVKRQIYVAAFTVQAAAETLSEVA
Assay: Surface plasmon resonance assay (Biacore T200, single cycle kinetic)
Assay type: binding
Conditions: PSMA SPR assay, hPSMA-Fc, 25° C.; pKD category; read-out: pKD CAT (converted)
Numbered stars: 1 amine (or outer) side, 2 acyl side, 3 side chain; on linkers, the order of the positions; unused ones are H or OH. Bridge positions count the residues as written; N and C are the ends. Square brackets hold non-standard residues; d marks the D form. Peptide text beside a SMILES is read from it. * marks the point of attachment. X7 = O=C(O)CN1CCN(CC(=O)O)CCN(CC(=O)NC2CCN(CC(=O)*)CC2)CCN(CC(=O)O)CC1; X3 = O=C(O)CN1CCN(CC(=O)O)CCN(CC(=O)NCCCOCCOCCOCCCN*)CCN(CC(=O)O)CC1; DOTA = O=C(O)CN1CCN(CC(=O)O)CCN(CC(=O)*)CCN(CC(=O)O)CC1; Phe(4-Cl) = N[C@@H](Cc1ccc(Cl)cc1)C(=O)O; Arg(Me) = CNC(=N)NCCC[C@H](N)C(=O)O; X1 = O=C(CC1CCN([*:1])CC1)[*:2]; Suc = O=C(CCC(=O)[*:2])[*:1]; Tle = CC(C)(C)[C@H](N)C(=O)O; 4Amb = NCc1ccc(C(=O)O)cc1; Aib = CC(C)(N)C(=O)O; Ahx = NCCCCCC(=O)O; βAla = NCCC(=O)O
Recorded Kd for the following compounds
measurement-label: Kd

# compound, meas-value
records = [
    ("CC(=O)NCCCC[C@@H]1NC(=O)[C@H](CCCCN)NC(=O)[C@@H](NC(=O)[C@H](Cc2ccc(Cl)cc2)NC(=O)C(C)(C)NC(=O)[C@@H](NC(=O)CC2CCN(C(=O)CN3CCN(CC(=O)O)CCN(CC(=O)O)CCN(CC(=O)O)CC3)CC2)[C@@H](C)O)CSSC[C@@H](C(=O)N[C@H](C(=O)N[C@H](C(N)=O)[C@@H](C)O)C(C)(C)C)NC(=O)[C@H](CC(N)=O)NC(=O)C(C)(C)NC1=O [PSM-0341] ({DOTA}-[X1]T[Aib][Phe(4-Cl)]CKK(Ac)[Aib]NC[Tle]T-NH2; disulfide 5-10)", "< 0.0126 µM"),
    ("CC(=O)NC(C)(C)C(=O)N[C@@H](Cc1ccc(Cl)cc1)C(=O)N[C@H]1CSSC[C@@H](C(=O)N[C@H](C(=O)N[C@H](C(N)=O)[C@@H](C)O)C(C)(C)C)NC(=O)[C@H](CC(N)=O)NC(=O)[C@H](CCCCNC(=O)CN2CCC(NC(=O)CN3CCN(CC(=O)O)CCN(CC(=O)O)CCN(CC(=O)O)CC3)CC2)NC(=O)[C@H](CCCNC(=N)N)NC(=O)[C@H](CCCCN)NC1=O [PSM-0282] (Ac-[Aib][Phe(4-Cl)]CKRK(X7)NC[Tle]T-NH2; disulfide 3-8)", "< 0.0126 µM"),
    ("C[C@@H](O)[C@H](NC(=O)[C@@H](NC(=O)[C@@H]1CSSC[C@H](NC(=O)[C@H](Cc2ccc(Cl)cc2)NC(=O)C(C)(C)NC(=O)CCCCCNC(=O)CN2CCN(CC(=O)O)CCN(CC(=O)O)CCN(CC(=O)O)CC2)C(=O)N[C@@H](CCCCN)C(=O)N[C@@H](CCCNC(=N)N)C(=O)NC(C)(C)C(=O)N[C@@H](CC(N)=O)C(=O)N1)C(C)(C)C)C(N)=O [PSM-0310] ({DOTA-Ahx}-[Aib][Phe(4-Cl)]CKR[Aib]NC[Tle]T-NH2; disulfide 3-8)", "< 0.0126 µM"),
    ("CNC(=N)NCCC[C@@H]1NC(=O)[C@H](CCCCN)NC(=O)[C@@H](NC(=O)[C@H](Cc2ccc(Cl)cc2)NC(=O)C(C)(C)NC(=O)[C@@H](NC(=O)CC2CCN(C(=O)CN3CCN(CC(=O)O)CCN(CC(=O)O)CCN(CC(=O)O)CC3)CC2)[C@@H](C)O)CSSC[C@@H](C(=O)N[C@H](C(N)=O)C(C)(C)C)NC(=O)[C@H](CC(N)=O)NC(=O)C(C)(C)NC1=O [PSM-0345] ({DOTA}-[X1]T[Aib][Phe(4-Cl)]CK[Arg(Me)][Aib]NC[Tle]-NH2; disulfide 5-10)", "< 0.0126 µM"),
    ("C[C@@H](O)[C@H](NC(=O)[C@@H](NC(=O)[C@@H]1CSSC[C@H](NC(=O)[C@H](Cc2ccc(Cl)cc2)NC(=O)C(C)(C)NC(=O)c2ccc(CNC(=O)CN3CCN(CC(=O)O)CCN(CC(=O)O)CCN(CC(=O)O)CC3)cc2)C(=O)N[C@@H](CCCCN)C(=O)N[C@@H](CCCNC(=N)N)C(=O)NC(C)(C)C(=O)N[C@@H](CC(N)=O)C(=O)N1)C(C)(C)C)C(N)=O [PSM-0283] ({DOTA-4Amb}-[Aib][Phe(4-Cl)]CKR[Aib]NC[Tle]T-NH2; disulfide 3-8)", "< 0.0126 µM"),
    ("C[C@@H](O)[C@H](NC(=O)[C@@H](NC(=O)[C@@H]1CSSC[C@H](NC(=O)[C@H](Cc2ccc(Cl)cc2)NC(=O)[C@H](CCC(=O)O)NC(=O)[C@@H](NC(=O)CC2CCN(C(=O)CN3CCN(CC(=O)O)CCN(CC(=O)O)CCN(CC(=O)O)CC3)CC2)[C@@H](C)O)C(=O)N[C@@H](CCCCN)C(=O)N[C@@H](CCCNC(=N)N)C(=O)NC(C)(C)C(=O)N[C@@H](CC(N)=O)C(=O)N1)C(C)(C)C)C(N)=O [PSM-0276] ({DOTA}-[X1]TE[Phe(4-Cl)]CKR[Aib]NC[Tle]T-NH2; disulfide 5-10)", "> 0.501 µM"),
    ("CC(=O)N[C@H](C(=O)NC(C)(C)C(=O)N[C@@H](Cc1ccccc1)C(=O)N[C@@H]1CSSC[C@H](C(=O)N[C@H](C(=O)N[C@H](C(N)=O)[C@@H](C)O)C(C)(C)C)NC(=O)[C@H](CC(N)=O)NC(=O)C(C)(C)NC(=O)[C@H](CCCNC(=N)N)NC(=O)[C@H](CCCCN)NC1=O)[C@@H](C)O [PSM-0327] (Ac-T[Aib]F[dC]KR[Aib]N[dC][Tle]T-NH2; disulfide 4-9)", "> 0.501 µM"),
    ("C[C@@H](O)[C@H](NC(=O)[C@@H](NC(=O)[C@@H]1CSSC[C@H](NC(=O)[C@H](Cc2ccc(Cl)cc2)NC(=O)C(C)(C)NC(=O)CCNC(=O)CN2CCN(CC(=O)O)CCN(CC(=O)O)CCN(CC(=O)O)CC2)C(=O)N[C@@H](CCCCN)C(=O)N[C@@H](CCCNC(=N)N)C(=O)NC(C)(C)C(=O)N[C@@H](CC(N)=O)C(=O)N1)C(C)(C)C)C(N)=O [PSM-0352] ({DOTA-βAla}-[Aib][Phe(4-Cl)]CKR[Aib]NC[Tle]T-NH2; disulfide 3-8)", "< 0.0126 µM"),
    ("C[C@@H]1NC(=O)[C@H](CCCNC(=N)N)NC(=O)[C@H](CCCCN)NC(=O)[C@@H](NC(=O)[C@H](Cc2ccccc2)NC(=O)[C@H](C)NC(=O)[C@@H](NC(=O)CCC(=O)NCCCOCCOCCOCCCNC(=O)CN2CCN(CC(=O)O)CCN(CC(=O)O)CCN(CC(=O)O)CC2)[C@@H](C)O)CSSC[C@@H](C(=O)N[C@H](C(=O)N[C@H](C(=O)N[C@@H](CC(=O)O)C(N)=O)[C@@H](C)O)C(C)(C)C)NC(=O)[C@H](CC(N)=O)NC1=O [PSM-0342] ({X3-Suc}-TAFCKRANC[Tle]TD-NH2; disulfide 4-9)", "0.0126 to 0.126 µM"),
]
